- tested_target: Peroxisome proliferator-activated receptor gamma (Homo sapiens) (UniProt P37231)
- Sequence (P37231 whole entry, looked up): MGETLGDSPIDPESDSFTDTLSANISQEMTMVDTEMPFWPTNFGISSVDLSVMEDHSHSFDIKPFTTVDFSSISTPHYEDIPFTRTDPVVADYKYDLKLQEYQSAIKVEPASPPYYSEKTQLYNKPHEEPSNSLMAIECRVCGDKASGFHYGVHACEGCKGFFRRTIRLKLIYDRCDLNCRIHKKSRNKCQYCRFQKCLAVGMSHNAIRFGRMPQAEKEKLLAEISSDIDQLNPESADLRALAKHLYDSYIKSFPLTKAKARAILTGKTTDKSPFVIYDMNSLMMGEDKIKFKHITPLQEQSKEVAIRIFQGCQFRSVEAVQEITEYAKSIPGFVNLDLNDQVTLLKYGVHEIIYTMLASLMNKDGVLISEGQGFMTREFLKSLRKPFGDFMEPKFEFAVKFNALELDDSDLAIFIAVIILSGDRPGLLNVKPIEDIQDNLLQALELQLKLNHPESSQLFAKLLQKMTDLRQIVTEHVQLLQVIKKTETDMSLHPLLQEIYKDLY
- protocol_details: ATG_PPARg_TRANS: Attagene TRANS-FACTORIAL HepG2 Assay for human Peroxisome Proliferator-activated Receptor-gamma (PPARg) (AID 2283007)
Records with an inconclusive call do not appear. Calls of active or inactive are those of the source. The calls were made as follows: active = hit-call score of the fitted dose curve at least 0.9, where 1 is the maximum; inconclusive = response in the unintended direction; inactive = score below 0.9.
Select the matching outcome among t (active), f (inactive)

Query: Tell me the assay call for CCOC(=O)COC(=O)c1cc(Oc2ccc(C(F)(F)F)cc2Cl)ccc1[N+](=O)[O-] please.
Reply: t

Query: Hi, do you know how O=CCc1ccccc1 came out in this test?
Reply: t

Query: What outcome does the record of this test show for C=C(CC(=O)O)C(=O)O ?
Reply: f

Query: # outcome recorded in this test, key = CC(Oc1cc(Cl)ccc1Cl)C(=O)O (stereo not drawn)
Reply: f

Query: Given CCCCCC(=O)CC , state the outcome it received in this test.
Reply: f

Query: Dear all, I need the recorded test outcome for CCCCCCCCN1CCCC1=O , thank you.
Reply: f

Query: What did the test return for CC(C)(C)C1=CC(=O)C(C(C)(C)C)=CC1=O ?
Reply: t

Query: Write down the call the test reported for this molecule. Item: Cc1ncc[nH]1
Reply: f
